system: PSMA-expressing LNCaP tumor xenografts; assay: Ex vivo biodistribution in LNCaP tumor-bearing mice; details: LNCaP tumor-bearing mice, 1 h post injection, mean ± SD, n = 4

compound | Liver uptake (%ID/g)
N#C[C@@H]1CC(F)(F)CN1C(=O)CNC(=O)c1ccnc2ccc(-c3cn(CC(=O)N[C@@H](CCCCNC(=O)CN4CCN(CC(=O)[O-])CCN(CC(=O)[O-])CCN(CC(=O)[O-])CC4)C(=O)NCC(=O)NC[C@H]4CC[C@H](C(=O)N[C@@H](Cc5c6ccccc6cc6ccccc56)C(=O)NCCCC[C@H](NC(=O)N[C@@H](CCC(=O)O)C(=O)O)C(=O)O)CC4)nn3)cc12.[68Ga+3] [[^68Ga]Ga-AV01030] | 1.43
N#C[C@@H]1CC(F)(F)CN1C(=O)CNC(=O)c1ccnc2ccc(OCCCN3CCN(C(=O)CN4CCN(CC(=O)[O-])CCN(CC(=O)[O-])CCN(CC(=O)[O-])CC4)CC3)cc12.[68Ga+3] [[^68Ga]Ga-FAPI-04, reference compound] | 0.76
N#C[C@@H]1CC(F)(F)CN1C(=O)CNC(=O)c1ccnc2ccc(OCCCc3cn(CC(=O)N[C@@H](CCCCNC(=O)CN4CCN(CC(=O)[O-])CCN(CC(=O)[O-])CCN(CC(=O)[O-])CC4)C(=O)NCC(=O)NC[C@H]4CC[C@H](C(=O)N[C@@H](Cc5c6ccccc6cc6ccccc56)C(=O)NCCCC[C@H](NC(=O)N[C@@H](CCC(=O)O)C(=O)O)C(=O)O)CC4)nn3)cc12.[68Ga+3] [[^68Ga]Ga-AV01017] | 2.24
N#C[C@@H]1CC(F)(F)CN1C(=O)CNC(=O)c1ccnc2ccc(OCc3cn(CC(=O)N[C@@H](CCCCNC(=O)CN4CCN(CC(=O)[O-])CCN(CC(=O)[O-])CCN(CC(=O)[O-])CC4)C(=O)NCC(=O)NC[C@H]4CC[C@H](C(=O)N[C@@H](Cc5c6ccccc6cc6ccccc56)C(=O)NCCCC[C@H](NC(=O)N[C@@H](CCC(=O)O)C(=O)O)C(=O)O)CC4)nn3)cc12.[68Ga+3] [[^68Ga]Ga-AV01038] | 2.06

----------
system: PSMA-expressing LNCaP tumor xenografts; experiment: Ex vivo biodistribution in LNCaP tumor-bearing mice; settings: LNCaP tumor-bearing mice, 1 h post injection, mean ± SD, n = 4

compound | targetUnderTest | Thyroid uptake
N#C[C@@H]1CC(F)(F)CN1C(=O)CNC(=O)c1ccnc2ccc(OCCCN3CCN(C(=O)CN4CCN(CC(=O)[O-])CCN(CC(=O)[O-])CCN(CC(=O)[O-])CC4)CC3)cc12.[68Ga+3] [[^68Ga]Ga-FAPI-04, reference compound] | PSMA-expressing LNCaP tumor xenografts | 3.62 ± 1.01 %ID/g

----------
Below, each entry is listed with its recorded Tumor/blood uptake ratio.
test system: PSMA-expressing LNCaP tumor xenografts; assay: Ex vivo biodistribution in LNCaP tumor-bearing mice; conditions: LNCaP tumor-bearing mice, 1 h post injection, mean ± SD, n = 4

molecule | Tumor/blood uptake ratio
N#C[C@@H]1CC(F)(F)CN1C(=O)CNC(=O)c1ccnc2ccc(-c3cn(CC(=O)N[C@@H](CCCCNC(=O)CN4CCN(CC(=O)[O-])CCN(CC(=O)[O-])CCN(CC(=O)[O-])CC4)C(=O)NCC(=O)NC[C@H]4CC[C@H](C(=O)N[C@@H](Cc5c6ccccc6cc6ccccc56)C(=O)NCCCC[C@H](NC(=O)N[C@@H](CCC(=O)O)C(=O)O)C(=O)O)CC4)nn3)cc12.[68Ga+3] [[^68Ga]Ga-AV01030] | 0.89
N#C[C@@H]1CC(F)(F)CN1C(=O)CNC(=O)c1ccnc2ccc(OCc3cn(CC(=O)N[C@@H](CCCCNC(=O)CN4CCN(CC(=O)[O-])CCN(CC(=O)[O-])CCN(CC(=O)[O-])CC4)C(=O)NCC(=O)NC[C@H]4CC[C@H](C(=O)N[C@@H](Cc5c6ccccc6cc6ccccc56)C(=O)NCCCC[C@H](NC(=O)N[C@@H](CCC(=O)O)C(=O)O)C(=O)O)CC4)nn3)cc12.[68Ga+3] [[^68Ga]Ga-AV01038] | 0.60
N#C[C@@H]1CC(F)(F)CN1C(=O)CNC(=O)c1ccnc2ccc(OCCCc3cn(CC(=O)N[C@@H](CCCCNC(=O)CN4CCN(CC(=O)[O-])CCN(CC(=O)[O-])CCN(CC(=O)[O-])CC4)C(=O)NCC(=O)NC[C@H]4CC[C@H](C(=O)N[C@@H](Cc5c6ccccc6cc6ccccc56)C(=O)NCCCC[C@H](NC(=O)N[C@@H](CCC(=O)O)C(=O)O)C(=O)O)CC4)nn3)cc12.[68Ga+3] [[^68Ga]Ga-AV01017] | 0.48
N#C[C@@H]1CC(F)(F)CN1C(=O)CNC(=O)c1ccnc2ccc(OCCCN3CCN(C(=O)CN4CCN(CC(=O)[O-])CCN(CC(=O)[O-])CCN(CC(=O)[O-])CC4)CC3)cc12.[68Ga+3] [[^68Ga]Ga-FAPI-04, reference compound] | 1.04
